Measured values drawn from patent US20240207267A1 for this set.

Tested system: CRBN&DDB1 protein (Homo sapiens (Human))
Sequence (Q96SW2 40-442): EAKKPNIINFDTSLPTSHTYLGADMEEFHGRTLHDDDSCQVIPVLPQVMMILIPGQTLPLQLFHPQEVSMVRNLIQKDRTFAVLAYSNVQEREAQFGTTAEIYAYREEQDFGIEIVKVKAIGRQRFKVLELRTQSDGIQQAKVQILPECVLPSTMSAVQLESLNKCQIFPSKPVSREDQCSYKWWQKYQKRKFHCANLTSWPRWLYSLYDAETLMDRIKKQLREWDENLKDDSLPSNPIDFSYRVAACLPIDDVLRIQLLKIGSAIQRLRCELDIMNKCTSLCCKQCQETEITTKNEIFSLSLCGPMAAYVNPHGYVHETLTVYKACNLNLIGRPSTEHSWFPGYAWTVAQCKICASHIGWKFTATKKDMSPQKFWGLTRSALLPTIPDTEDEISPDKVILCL
Sequence (Q16531 whole entry partner): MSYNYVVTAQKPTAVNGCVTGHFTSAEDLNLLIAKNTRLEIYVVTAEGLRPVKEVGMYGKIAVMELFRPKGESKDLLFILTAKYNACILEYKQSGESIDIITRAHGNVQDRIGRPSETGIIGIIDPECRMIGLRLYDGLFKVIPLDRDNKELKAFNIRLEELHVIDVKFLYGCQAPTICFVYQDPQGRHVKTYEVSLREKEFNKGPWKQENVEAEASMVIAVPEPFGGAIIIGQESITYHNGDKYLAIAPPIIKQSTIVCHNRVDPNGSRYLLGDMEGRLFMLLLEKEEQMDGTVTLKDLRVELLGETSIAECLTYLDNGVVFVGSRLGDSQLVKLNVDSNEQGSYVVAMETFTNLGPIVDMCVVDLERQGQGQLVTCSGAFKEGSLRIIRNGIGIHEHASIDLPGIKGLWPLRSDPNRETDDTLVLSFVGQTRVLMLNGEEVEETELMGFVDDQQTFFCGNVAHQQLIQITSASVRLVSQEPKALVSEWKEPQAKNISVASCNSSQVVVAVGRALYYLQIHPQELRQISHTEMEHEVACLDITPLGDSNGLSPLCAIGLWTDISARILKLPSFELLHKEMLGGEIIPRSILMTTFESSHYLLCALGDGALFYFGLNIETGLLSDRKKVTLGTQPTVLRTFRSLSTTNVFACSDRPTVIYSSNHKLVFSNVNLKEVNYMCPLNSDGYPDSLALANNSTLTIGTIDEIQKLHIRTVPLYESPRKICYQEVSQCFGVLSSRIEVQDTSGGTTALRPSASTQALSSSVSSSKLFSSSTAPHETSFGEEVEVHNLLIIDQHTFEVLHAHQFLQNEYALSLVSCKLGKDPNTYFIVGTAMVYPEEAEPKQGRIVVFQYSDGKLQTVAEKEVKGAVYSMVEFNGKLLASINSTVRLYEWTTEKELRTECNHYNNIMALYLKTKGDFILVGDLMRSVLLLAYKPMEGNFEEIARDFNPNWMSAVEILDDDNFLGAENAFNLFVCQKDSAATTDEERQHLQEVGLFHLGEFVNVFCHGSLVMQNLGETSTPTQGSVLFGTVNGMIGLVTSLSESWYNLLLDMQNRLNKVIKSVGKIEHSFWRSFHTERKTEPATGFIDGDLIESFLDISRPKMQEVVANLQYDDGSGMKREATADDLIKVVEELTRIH
pIC50: −log10 of the molar value.
Experimental readout: pIC50

{"Compound": "O=C1CC[C@@H](c2c(F)cc(N3CC[C@@H](C(=O)O)C3)cc2F)C(=O)N1", "Value observed": 5.97}
{"Compound": "O=C1CC[C@H](c2c(F)cc(N3CC[C@@H](CO)C3)cc2F)C(=O)N1", "Value observed": 7.66}
{"Compound": "CCO/C=C/c1cc(F)c([C@@H]2CCC(=O)NC2=O)c(F)c1", "Value observed": 6.39}
{"Compound": "O=C1CCC(c2c(F)cc(N3CC(CO)C3)cc2F)C(=O)N1 (stereo not drawn)", "Value observed": 7.19}
{"Compound": "CCO/C=C/c1cc(F)c([C@H]2CCC(=O)NC2=O)c(F)c1", "Value observed": 7.57}
{"Compound": "O=C1CC[C@H](c2c(F)cc(N3CC[C@@H](C(=O)O)C3)cc2F)C(=O)N1", "Value observed": 7.59}

====

Tested on: EGFR Del19/T790M/C797S (H1975-clone #28 cells)
Assay: EGFR degradation HTRF assay in H1975-clone #28 cells
Type: cell-based
Measurement conditions: H1975-clone #28(Del19/T790M/C797S) cells, 16 h treatment, Table 2; read-out: H1975 # 28 DTC DC50

{"Mol smiles": "CCc1ccc2c(P(C)(C)=O)c(Nc3nc(Nc4cc(CC)c(N5CCC(N6CCN(CCc7cc(F)c([C@@H]8CCC(=O)NC8=O)c(F)c7)CC6)CC5)cc4OC)ncc3Br)ccc2n1", "Tested system": "EGFR Del19/T790M/C797S (H1975-clone #28 cells)", "DC50": "> 10000 nM"}
{"Mol smiles": "CCc1ccc2c(P(C)(C)=O)c(Nc3nc(Nc4cc(CC)c(N5CCC(N6CCN(C(=O)[C@@H]7CCN(c8cc(F)c([C@@H]9CCC(=O)NC9=O)c(F)c8)C7)CC6)CC5)cc4OC)ncc3Br)ccc2n1", "Tested system": "EGFR Del19/T790M/C797S (H1975-clone #28 cells)", "DC50": "> 10000 nM"}
{"Mol smiles": "CCc1cc(Nc2ncc(Br)c(Nc3ccc4nc(C)ccc4c3P(C)(C)=O)n2)c(OC)cc1N1CCC(N2CCN(C(=O)[C@@H]3CCN(c4ccc([C@@H]5CCC(=O)NC5=O)cc4)C3)CC2)CC1", "Tested system": "EGFR Del19/T790M/C797S (H1975-clone #28 cells)", "DC50": "> 10000 nM"}
{"Mol smiles": "CCc1ccc2c(P(C)(C)=O)c(Nc3nc(Nc4cc(CC)c(N5CCC(N6CCN(CCc7cc(F)c([C@H]8CCC(=O)NC8=O)c(F)c7)CC6)CC5)cc4OC)ncc3Br)ccc2n1", "Tested system": "EGFR Del19/T790M/C797S (H1975-clone #28 cells)", "DC50": "0.78 nM"}
{"Mol smiles": "CCc1cc(Nc2ncc(Br)c(Nc3ccc4nc(C)ccc4c3P(C)(C)=O)n2)c(OC)cc1N1CCC(N2CCN(C(=O)[C@@H]3CCN(c4cc(F)c([C@H]5CCC(=O)NC5=O)c(F)c4)C3)CC2)CC1", "Tested system": "EGFR Del19/T790M/C797S (H1975-clone #28 cells)", "DC50": "1.17 nM"}
